- TARGET: UniProt Q99705
- Sequence (Q99705 whole entry): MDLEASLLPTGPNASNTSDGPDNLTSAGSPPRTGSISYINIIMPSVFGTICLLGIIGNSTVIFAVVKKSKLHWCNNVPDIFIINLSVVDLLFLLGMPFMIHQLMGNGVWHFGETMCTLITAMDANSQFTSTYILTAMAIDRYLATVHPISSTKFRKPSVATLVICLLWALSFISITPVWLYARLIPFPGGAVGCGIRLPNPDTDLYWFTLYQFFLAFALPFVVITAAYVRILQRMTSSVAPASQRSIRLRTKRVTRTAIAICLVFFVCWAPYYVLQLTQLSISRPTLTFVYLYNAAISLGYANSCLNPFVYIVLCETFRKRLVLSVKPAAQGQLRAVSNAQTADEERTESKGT
- EXPERIMENTAL_PROTOCOL: Concentration required to inhibit binding of [125I]-MCH radioligand to human Melanin-concentrating hormone receptor 1 in IMR-32 I3.4.2 cell membranes
READOUT_TYPE: log10 of IC50 (log10 of the value in nM)
Lab note - IC50 converted to log10 from values in nM.

Past entries and their recorded results:
// query // returns reported log10 of IC50 for input CC(CN1CCCC1)Oc1cccc2ccc(N)nc12 (stereo not drawn)
// result 1.85

// query Param item = Nc1ccc2cccc(OCCCNc3ccc4c(c3)OC(F)(F)O4)c2n1 ; retrieve measured log10 of IC50.
// result 0.00

Others:
// query # query: log10 of IC50 of entry Nc1ccc2cccc(OCCCNc3ccc4c(c3)OCO4)c2n1
// result 1.00

// query For COCC1=C(C(=O)OC)[C@H](c2ccc(F)c(F)c2)N(C(=O)NCCCN2CCC(c3cccc(NC(C)=O)c3)CC2)C(=O)N1 , what is its reported log10 of IC50?
// result 0.48

// query So what's the measured log10 of IC50 for this one? CC(CNCc1ccsc1)Oc1cccc2ccc(N)nc12 (stereo not drawn)
// result 1.00

// query What measured log10 of IC50 goes with CC(CN1CCCCC1)Oc1cccc2ccc(N)nc12 (stereo not drawn) ?
// result 1.60

// query # input molecule: CC(CNCc1ccc2c(c1)OCO2)Oc1cccc2ccc(N)nc12 (stereo not drawn) ; wanted: its log10 of IC50
// result 1.48

// query Which value of log10 of IC50 has been reported for Nc1ccc2cccc(OCCCNC(=O)c3cccc(OC(F)(F)F)c3)c2n1 in the records?
// result 0.78

###

Documented Kp across a set of compounds
- EXPERIMENTAL_PROTOCOL: Brain/plasma ratio was determined at peroral dose of 10 mg/kg in diet-induced obese (DIO) mice
- Format: ADME, organism-based
- Set-up: dose 10 mg/kg, route oral
- EXPERIMENTAL_PARAMETERS: mouse, brain and plasma, po

// query Given the compound Nc1ccc2cccc(OCCCNCc3ccc(Cl)c(C(F)(F)F)c3)c2n1 , what is its reported Kp?
// result 0.96

// query Sample Nc1ccc2cccc(OCCCNC(=O)c3cccc(OC(F)(F)F)c3)c2n1 — what was its Kp?
// result 0.2

Here's the next entry for you.
// query Form field: reported Kp of N#Cc1cccc(C(=O)NCCCOc2cccc3ccc(N)nc23)c1
// result 0.03

###

- EXPERIMENTAL_PROTOCOL: Area under curve in brain was determined at the peroral dose of 10 mg/kg in diet-induced obese (DIO) mice
- Type: ADME, organism-based
- Set-up: dose 10 mg/kg, route oral
- EXPERIMENTAL_PARAMETERS: mouse, in vivo, po
READOUT_TYPE: AUC (ng·h/mL)
Quick note: give the figure in ng·h/mL, leave out the unit.

The following molecules have reported results that may help.
// query State the recorded AUC for this entry: N#Cc1cccc(C(=O)NCCCOc2cccc3ccc(N)nc23)c1
// result 11

// query # query: AUC of entry Nc1ccc2cccc(OCCCNCc3ccc(Cl)c(C(F)(F)F)c3)c2n1
// result 9520

Field: next molecule
// query Data request, read-out AUC, for Nc1ccc2cccc(OCCCNC(=O)c3cccc(OC(F)(F)F)c3)c2n1
// result 68
